- Test system: Mycobacterium scrofulaceum
- protocolText: Antibacterial activity against Mycobacterium scrofulaceum assessed as inhibition of microbial growth incubated for 1 week by MABA method
- Format: functional
- recordedConditions: 168 h, time 1 weeks
measuredAttribute: MIC (µg/mL)
# value in µg/mL; strip the unit string

A selection of reference data follows.
INSERT INTO assay_data (smilesnotation, studytarget, measuredattribute, reported) VALUES
  ('COc1ccc(Nc2nnnn2-c2ccc(Cl)cc2)cc1', 'Mycobacterium scrofulaceum', 'MIC', 16),
  ('COc1ccc(-n2nnnc2Nc2ccc(Br)cc2)cc1', 'Mycobacterium scrofulaceum', 'MIC', 512);

The recorded MIC with Mycobacterium scrofulaceum for COc1ccc(Nc2nnnn2-c2cccc(Cl)c2)cc1 was 2

The recorded MIC with Mycobacterium scrofulaceum for COc1ccc(-n2nnnc2Nc2ccccc2Br)cc1 was 256

Source listed as ChEMBL document CHEMBL4680121.
